Examples of variants with documented protein stability index follow.
B1: ZNF449 (parent)
chain: YRHQRLHTGERPYECTVCKKRFTR

variants of: B1; experiment: protein stability index of a GFP-peptide fusion (GPS, HEK-293T) (PSI 1-6); higher = more stable; settings: c terminus: a fixed tail appended;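 further: lentivirally expressed fusions sorted by FACS into six bins by GFP to DsRed ratio, PSI derived from sequencing read proportions per bin multiplied by bin number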
API note: the answer field is a bare number with no unit suffix.

Consider the following illustrative entries.
> print(dat)
                     sequenceentry  observedmeasurement
1  YRHQRLHTGERPYECTVCKKRWTR [F22W]                  2.3
2  YRHQRLHTGVRPYECTVCKKRFTR [E10V]                  2.4
3  YRHQRLHTGERPYECTNCKKRFTR [V17N]                 2.87
4   YRHQRLHRGERPYECTVCKKRFTR [T8R]                 2.87
5  YRHQRLHTGERPYECTVCKKVFTR [R21V]                    2

Fill blank: measured protein stability index of the variant PRHQRLHTGERPYECTVCKKRFTR [Y1P] is ____. 2.7

Fill blank: measured protein stability index of the variant YRHQRLHTGERPAECTVCKKRFTR [Y13A] is ____. 2.43

Fill blank: measured protein stability index of the variant YRHQRLHTGERPYECTVCKKRFTA [R24A] is ____. 2.35

Fill blank: measured protein stability index of the variant ARHQRLHTGERPYECTVCKKRFTR [Y1A] is ____. 3.22
